# TARGET: human ALX receptor (Homo sapiens)
# Sequence (P25090 whole entry): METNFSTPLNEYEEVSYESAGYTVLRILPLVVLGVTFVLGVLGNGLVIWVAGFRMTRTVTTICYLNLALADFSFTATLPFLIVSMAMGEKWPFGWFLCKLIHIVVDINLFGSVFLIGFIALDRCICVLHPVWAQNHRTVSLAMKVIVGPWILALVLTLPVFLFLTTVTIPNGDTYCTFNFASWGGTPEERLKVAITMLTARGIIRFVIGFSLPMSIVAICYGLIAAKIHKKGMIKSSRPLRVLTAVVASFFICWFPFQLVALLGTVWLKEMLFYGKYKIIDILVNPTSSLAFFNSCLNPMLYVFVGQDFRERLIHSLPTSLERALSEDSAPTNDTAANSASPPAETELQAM
# METHOD NOTES: Intracellular calcium measurements (FLIPR) in HEK293-hALXR-Gα16 cells, agonistic activity
# EXPERIMENTAL CONDITIONS: values normalized to WKYMVm 10 nM
pEC50: −log10 of the molar value.
MEASUREMENT LABEL: pEC50

Example results:
{"COMPOUND": "O=C(OCCOCCN1CCCC1)[C@H]1[C@H](C(=O)NCc2ccc(Br)cc2F)[C@@H]2CC[C@H]1C21CC1 [Example 32]", "TARGET": "human ALX receptor (Homo sapiens)", "REPORTED MEASUREMENT": 6.65}
{"COMPOUND": "O=C(OCC1CCCNC1)[C@H]1[C@H](C(=O)Nc2ccc(Br)nc2)[C@@H]2CC[C@H]1C21CC1 (some centres unmarked) [Example 12]", "TARGET": "human ALX receptor (Homo sapiens)", "REPORTED MEASUREMENT": 7.81}
{"COMPOUND": "O=C(OCCC1(F)CCNCC1)[C@H]1[C@H](C(=O)Nc2ccc(Br)nc2)[C@@H]2CC[C@H]1C21CC1 [Example 40]", "TARGET": "human ALX receptor (Homo sapiens)", "REPORTED MEASUREMENT": 8.34}
{"COMPOUND": "Cc1cc(CNC(=O)[C@H]2[C@H](C(=O)OC3CCCNC3)[C@H]3CC[C@@H]2C32CC2)no1 (some centres unmarked) [Example 16]", "TARGET": "human ALX receptor (Homo sapiens)", "REPORTED MEASUREMENT": 7.27}
{"COMPOUND": "O=C(OCC(O)CO)[C@H]1[C@H](C(=O)Nc2ccc(Br)nc2)[C@@H]2CC[C@H]1C21CC1 (relative stereo) [Example 5]", "TARGET": "human ALX receptor (Homo sapiens)", "REPORTED MEASUREMENT": 6.62}
{"COMPOUND": "Cc1cc(CNC(=O)[C@H]2[C@H](C(=O)OCCOCCN3CC[C@H](F)C3)[C@H]3CC[C@@H]2C32CC2)on1 [Example 42]", "TARGET": "human ALX receptor (Homo sapiens)", "REPORTED MEASUREMENT": 8.14}
{"COMPOUND": "O=C(OCC[C@H]1CCNC[C@H]1F)[C@H]1[C@H](C(=O)Nc2ccc(Br)nc2)[C@@H]2CC[C@H]1C21CC1 (relative stereo) [Example 38]", "TARGET": "human ALX receptor (Homo sapiens)", "REPORTED MEASUREMENT": 8.74}
{"COMPOUND": "COCCOC(=O)[C@H]1[C@H](C(=O)Nc2ccc(Br)nc2)[C@@H]2CC[C@H]1C21CC1 [Example 7]", "TARGET": "human ALX receptor (Homo sapiens)", "REPORTED MEASUREMENT": 6.52}

[a] O=C(OCCN1CCNCC1)[C@H]1[C@H](C(=O)Nc2ccc(Br)nc2)[C@@H]2CC[C@H]1C21CC1 [Example 37]
[b] O=C(OCCC1CCNCC1(F)F)[C@H]1[C@H](C(=O)Nc2ccc(Br)nc2)[C@@H]2CC[C@H]1C21CC1 (some centres unmarked) [Example 73]
Lookup: Compare the recorded pEC50 of a and b ; state which is larger. Refer to your chosen entry by its label in the reply.
Found: a

[I] O=C(OCCC1CCNCC1)[C@H]1[C@H](C(=O)NCc2ccc(Br)cc2F)[C@@H]2CC[C@H]1C21CC1 [Example 72]
[II] O=C(OCCOCCN1CCCC1)[C@H]1[C@H](C(=O)Nc2ccc(Br)nc2)[C@@H]2CC[C@H]1C21CC1 [Example 31]
[III] Cc1cc(CNC(=O)[C@H]2[C@H](C(=O)OCC3CCNCC3)[C@H]3CC[C@@H]2C32CC2)on1 [Example 52]
Lookup: Would you mind ranking these compounds by ascending pEC50? Your task in answering is to list the labels in the requested order.
Found: I, III, II
